- PROTOCOL DESCRIPTION: MTT cytotoxicity assay on Hep G2 cells
- Format: cell-based, human
- CONDITION LABEL: human, DPTM 4.98 mM, read-out: cell viability
RECORDED METRIC: viability at 24 h, 4.98 mM (%)

>>> observed_value("C=CC1(C)CC(OC(=O)CSc2nc(N)cc(N)n2)C2(C)C(C)CCC3(CCC(=O)C32)C(C)C1O (stereo not shown)")
79

====

- SUBJECT OF TEST: CYP2C9 (Homo sapiens, UniProt P11712)
- Sequence (P11712 whole entry): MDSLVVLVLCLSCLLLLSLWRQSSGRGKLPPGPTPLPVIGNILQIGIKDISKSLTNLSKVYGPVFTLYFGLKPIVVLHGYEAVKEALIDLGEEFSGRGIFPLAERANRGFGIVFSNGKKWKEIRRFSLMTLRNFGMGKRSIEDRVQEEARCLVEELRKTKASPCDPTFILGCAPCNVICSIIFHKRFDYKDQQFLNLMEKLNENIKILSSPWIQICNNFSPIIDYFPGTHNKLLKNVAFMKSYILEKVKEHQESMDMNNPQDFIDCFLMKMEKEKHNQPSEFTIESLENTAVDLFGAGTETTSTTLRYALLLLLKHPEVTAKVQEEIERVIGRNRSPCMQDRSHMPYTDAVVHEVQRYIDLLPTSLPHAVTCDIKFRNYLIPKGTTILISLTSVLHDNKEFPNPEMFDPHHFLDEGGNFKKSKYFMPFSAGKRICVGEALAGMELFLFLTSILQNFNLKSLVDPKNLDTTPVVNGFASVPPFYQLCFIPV
pIC50: −log10 of the molar value.
RECORDED METRIC: pIC50

>>> observed_value("C=CC1(C)CC(OC(=O)CSc2nc(N)cc(N)n2)C2(C)C(C)CCC3(CCC(=O)C32)C(C)C1O (stereo not shown)")
"< 4.00"

====

- SUBJECT OF TEST: CYP2D1 (Rattus norvegicus, UniProt P10633)
- Sequence (P10633 whole entry): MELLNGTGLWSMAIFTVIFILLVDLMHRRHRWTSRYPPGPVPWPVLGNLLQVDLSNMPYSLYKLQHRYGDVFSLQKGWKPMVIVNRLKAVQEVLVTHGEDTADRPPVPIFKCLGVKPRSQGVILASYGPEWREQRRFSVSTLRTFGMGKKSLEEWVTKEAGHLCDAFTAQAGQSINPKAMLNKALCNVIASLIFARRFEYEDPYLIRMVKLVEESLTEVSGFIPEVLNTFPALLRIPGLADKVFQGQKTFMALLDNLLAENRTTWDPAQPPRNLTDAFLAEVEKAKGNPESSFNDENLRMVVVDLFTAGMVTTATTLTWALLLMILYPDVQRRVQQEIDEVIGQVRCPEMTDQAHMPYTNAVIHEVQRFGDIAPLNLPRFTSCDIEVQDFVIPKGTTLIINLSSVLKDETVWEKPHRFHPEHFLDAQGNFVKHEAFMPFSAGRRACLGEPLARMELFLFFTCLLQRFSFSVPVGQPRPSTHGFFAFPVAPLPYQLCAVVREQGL
pIC50: −log10 of the molar value.
RECORDED METRIC: pIC50

>>> observed_value("C=CC1(C)CC(OC(=O)CSc2nc(N)cc(N)n2)C2(C)C(C)CCC3(CCC(=O)C32)C(C)C1O (stereo not shown) [DPTM]")
"< 4.00"

====

- SUBJECT OF TEST: CYP2E1 (Homo sapiens)
- Sequence (P05181 whole entry): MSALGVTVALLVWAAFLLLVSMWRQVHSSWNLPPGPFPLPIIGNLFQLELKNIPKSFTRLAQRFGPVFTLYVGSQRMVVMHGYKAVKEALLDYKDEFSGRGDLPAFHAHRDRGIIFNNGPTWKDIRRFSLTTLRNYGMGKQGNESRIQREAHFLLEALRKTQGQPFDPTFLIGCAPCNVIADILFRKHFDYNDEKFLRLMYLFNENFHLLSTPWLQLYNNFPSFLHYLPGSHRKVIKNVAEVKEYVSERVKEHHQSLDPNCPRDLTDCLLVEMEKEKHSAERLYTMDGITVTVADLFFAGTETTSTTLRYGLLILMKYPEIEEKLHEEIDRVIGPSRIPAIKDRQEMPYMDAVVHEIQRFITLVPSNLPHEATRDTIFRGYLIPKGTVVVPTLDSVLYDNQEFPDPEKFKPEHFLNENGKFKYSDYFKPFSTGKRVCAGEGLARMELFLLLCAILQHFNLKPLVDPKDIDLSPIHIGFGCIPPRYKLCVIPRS
RECORDED METRIC: IC50 (µM)

>>> observed_value("C=CC1(C)CC(OC(=O)CSc2nc(N)cc(N)n2)C2(C)C(C)CCC3(CCC(=O)C32)C(C)C1O (stereo not shown) [DPTM]")
67

====

- SUBJECT OF TEST: CYP2C11 (Rattus norvegicus)
- Sequence (P08683 1-500): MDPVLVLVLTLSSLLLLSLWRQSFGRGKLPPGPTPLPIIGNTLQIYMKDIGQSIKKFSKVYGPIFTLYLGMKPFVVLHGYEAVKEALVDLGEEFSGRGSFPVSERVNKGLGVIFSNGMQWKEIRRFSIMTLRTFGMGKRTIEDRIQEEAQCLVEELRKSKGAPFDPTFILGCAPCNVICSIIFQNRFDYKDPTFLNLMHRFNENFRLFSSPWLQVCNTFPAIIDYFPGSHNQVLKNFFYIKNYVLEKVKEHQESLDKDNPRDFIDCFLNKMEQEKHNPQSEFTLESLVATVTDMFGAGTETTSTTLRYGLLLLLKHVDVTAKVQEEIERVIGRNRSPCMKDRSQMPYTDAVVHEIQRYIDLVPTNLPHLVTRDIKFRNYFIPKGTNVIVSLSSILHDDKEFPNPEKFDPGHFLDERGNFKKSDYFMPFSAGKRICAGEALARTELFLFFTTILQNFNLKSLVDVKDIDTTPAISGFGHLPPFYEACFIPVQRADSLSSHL
pIC50: −log10 of the molar value.
RECORDED METRIC: pIC50

>>> observed_value("C=CC1(C)CC(OC(=O)CSc2nc(N)cc(N)n2)C2(C)C(C)CCC3(CCC(=O)C32)C(C)C1O (stereo not shown) [DPTM]")
"< 4.00"

====

- SUBJECT OF TEST: CYP1A2 (Rattus norvegicus, UniProt P04799)
- Sequence (P04799 whole entry): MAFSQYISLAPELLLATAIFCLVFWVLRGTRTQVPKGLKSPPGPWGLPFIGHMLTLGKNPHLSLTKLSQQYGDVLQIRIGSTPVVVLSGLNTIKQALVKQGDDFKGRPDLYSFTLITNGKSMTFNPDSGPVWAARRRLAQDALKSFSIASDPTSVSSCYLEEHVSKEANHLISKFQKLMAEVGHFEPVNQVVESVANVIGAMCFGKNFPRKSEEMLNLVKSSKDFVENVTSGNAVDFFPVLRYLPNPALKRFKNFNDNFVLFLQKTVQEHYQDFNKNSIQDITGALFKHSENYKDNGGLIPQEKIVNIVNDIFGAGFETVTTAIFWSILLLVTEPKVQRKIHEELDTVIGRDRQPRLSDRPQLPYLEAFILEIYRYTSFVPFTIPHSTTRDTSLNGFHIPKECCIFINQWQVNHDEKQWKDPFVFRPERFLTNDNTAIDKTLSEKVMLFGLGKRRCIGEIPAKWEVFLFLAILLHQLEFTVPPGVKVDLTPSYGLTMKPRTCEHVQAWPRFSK
RECORDED METRIC: IC50

>>> observed_value("C=CC1(C)CC(OC(=O)CSc2nc(N)cc(N)n2)C2(C)C(C)CCC3(CCC(=O)C32)C(C)C1O (stereo not shown)")
"> 100 µM"
